- System: HSkMC (human skeletal muscle cells)
- ASSAY: cytotoxicity call (relative viability < 0.9)
- REPORTED CONDITIONS: 10 µM
The campaign covered roughly 39,000 compounds. About 1,500 (3.8%) were called active. This excerpt belongs to a sample that is enriched for actives.
Pick from active, inactive when you respond.

Oc1ccc(F)c2ccccc12: inactive
C[C@@H]1CN([C@@H](C)CO)C(=O)c2cc(NC(=O)Nc3ccc(C(F)(F)F)cc3)ccc2O[C@@H](C)CCCCO[C@H]1CN(C)S(=O)(=O)c1cn(C)cn1: inactive
Cc1ccc(S(=O)(=O)Nc2ccc3c(c2)C(=O)N([C@@H](C)CO)C[C@H](C)[C@@H](CN(C)C(=O)NC2CCCCC2)OCCCC[C@H](C)O3)cc1: inactive
O=C(CCCCCCC(=O)Nc1ccc([C@H]2C[C@H](c3ccccc3)O[C@H](c3ccc(Oc4ccccc4)cc3)O2)cc1)NO: active
O=C(O)[C@@H]1CCCNC1: inactive

What is the recorded call for this compound in the test? `C[C@H]1CCCCO[C@@H](CN(C)S(=O)(=O)c2cn(C)cn2)[C@@H](C)CN([C@@H](C)CO)C(=O)c2cc(NC(=O)Nc3ccc(C(F)(F)F)cc3)ccc2O1` active

What is the recorded call for this compound in the test? `O=C(CCCCCCC(=O)Nc1ccc([C@H]2O[C@@H](CN3CCCCCCC3)C[C@H](c3ccccc3)O2)cc1)NO` inactive

What is the recorded call for this compound in the test? `COc1cc2c(cc1OC)CN(C[C@H]1C[C@H](c3ccccc3)O[C@H](c3ccc(NC(=O)CCCCCCC(=O)NO)cc3)O1)CC2` active
